Sourced from BindingDB's records for doi:10.1021/acs.jmedchem.5b00085

Measured log10 IC50 values are reported for all entries that follow.
# Assay Text: Modulation of P-gp (unknown origin) transfected in human MDA435/LCC6MDR cells assessed as reversible of paclitaxel resistance measured as IC50 for paclitaxel at 1 uM after 5 days by CellTiter 96 Aqueous assay
Transform log10 | Measure IC50 | Unit nM

{"columns": ["Smiles Representation", "Result Type", "Experimental Value"],
 "data": [
  ["COc1ccc(/C=C/C(=O)O[C@@H]2Cc3c(OC)cc(OC)cc3O[C@@H]2c2cc(OC)c(OC)c(OC)c2)cc1", "log10 IC50", 1.34]
]}

Which log10 IC50 value belongs to COc1ccc(CCC(=O)O[C@@H]2Cc3c(OC)cc(OC)cc3O[C@@H]2c2cc(OC)c(OC)c(OC)c2)cc1 ? 1.60

Now the molecule COc1cc(OC)c2c(c1)O[C@H](c1cc(OC)c(OC)c(OC)c1)[C@H](OC(=O)CCc1ccc(OC)c(OC)c1)C2 1.28

Now consider COc1ccc(C(=O)O[C@@H]2Cc3c(OC)cc(OC)cc3O[C@@H]2c2cc(OC)c(OC)c(OC)c2)cc1 . 2.17

* * *

# Assay Text: Modulation of BCRP (unknown origin) transfected in human HEK293/R2 cells assessed as potentiation of topotecan-induced cytotoxicity measured as topotecan IC50 at 1 uM after 5 days by MTS assay
Known IC50 of a selection of compounds
State the answer as a number, implicitly in µM.

Observe how each entry below is paired with its result.
{"columns": ["Smiles Representation", "Unit Abbreviation", "IC50"],
 "data": [
  ["COc1cc(OC)c2c(c1)O[C@H](c1cc(OC)c(OC)c(OC)c1)[C@H](OC(=O)/C=C/c1cc(OC)c(OC)c(OC)c1)C2", "µM", 0.357],
  ["COc1cc(OC)c2c(c1)O[C@H](c1cc(OC)c(OC)c(OC)c1)[C@H](OC(=O)c1ccc(F)c(NC(=O)c3ccc(OC)c(OC)c3)c1)C2", "µM", 0.176],
  ["COc1cc(OC)c2c(c1)O[C@H](c1cc(OC)c(OC)c(OC)c1)[C@@H](OC(=O)c1ccc(F)c(NC(=O)c3ccc(OC)c(OC)c3)c1)C2", "µM", 0.045]
]}

For COc1cc(OC)c2c(c1)O[C@H](c1cc(OC)c(OC)c(OC)c1)[C@@H](OC(=O)c1ccc(F)c(NC(=O)c3cc(OC)c(OC)c(OC)c3)c1)C2 , what is its reported IC50? 0.038

Entry COc1cc(OC)c2c(c1)O[C@H](c1cc(OC)c(OC)c(OC)c1)[C@H](OC(=O)c1ccc(F)c(NC(=O)c3cc(OC)c(OC)c(OC)c3)c1)C2 please 0.207

* * *

Readings of EC50 for the listed molecules
# Assay Text: Modulation of P-gp (unknown origin) transfected in human MDA435/LCC6MDR cells assessed as reversing doxorubicin resistance measured as cell survival after 5 days by MTS assay

# EC50 lookup, item COc1cc(OC)c2c(c1)O[C@H](c1cc(OC)c(OC)c(OC)c1)[C@H](OC(=O)c1ccc(F)c(NC(=O)c3ccc(OC)c(OC)c3)c1)C2 139 nM

COc1cc(OC)c2c(c1)O[C@H](c1cc(OC)c(OC)c(OC)c1)[C@@H](OC(=O)c1ccc(F)c(NC(=O)c3cc(OC)c(OC)c(OC)c3)c1)C2 , same question. 107 nM

# repeat for COc1cc(OC)c2c(c1)O[C@H](c1cc(OC)c(OC)c(OC)c1)[C@@H](OC(=O)c1ccc(F)c(NC(=O)c3ccc(OC)c(OC)c3)c1)C2 208 nM

Now this one: COc1cc(OC)c2c(c1)O[C@H](c1cc(OC)c(OC)c(OC)c1)[C@H](OC(=O)/C=C/c1ccc(OC)c(OC)c1)C2 160 nM

* * *

# Assay Text: Modulation of P-gp (unknown origin) transfected in human MDA435/LCC6MDR cells assessed as reversing vincristine resistance measured as cell survival after 5 days by MTS assay
Result Type: EC50 (nM)
Just the number please, in nM, no unit attached.

{"columns": ["Smiles Representation", "Result Type", "Experimental Value"],
 "data": [
  ["COc1cc(OC)c2c(c1)O[C@H](c1cc(OC)c(OC)c(OC)c1)[C@H](OC(=O)/C=C/c1ccc(OC)c(OC)c1)C2", "EC50", 167]
]}

Reported EC50 for COc1cc(OC)c2c(c1)O[C@H](c1cc(OC)c(OC)c(OC)c1)[C@@H](OC(=O)c1ccc(F)c(NC(=O)c3cc(OC)c(OC)c(OC)c3)c1)C2 : what is it? 102

Next up: COc1cc(OC)c2c(c1)O[C@H](c1cc(OC)c(OC)c(OC)c1)[C@H](OC(=O)c1ccc(F)c(NC(=O)c3ccc(OC)c(OC)c3)c1)C2 181

Follow-up item: COc1cc(OC)c2c(c1)O[C@H](c1cc(OC)c(OC)c(OC)c1)[C@@H](OC(=O)c1ccc(F)c(NC(=O)c3ccc(OC)c(OC)c3)c1)C2 147

* * *

# Assay Text: Modulation of MRP1 (unknown origin) transfected in human 2008/MRP1 cells assessed as potentiation of doxorubicin-induced cytotoxicity measured as doxorubicin IC50 at 1 uM after 5 days by MTS assay
Result Type: IC50 (nM)
Lab book: enter the figure in nM, no units written.

In the examples that follow, each entry is paired with its recorded IC50.
{"columns": ["Smiles Representation", "Experimental Value"],
 "data": [
  ["COc1cc(OC)c2c(c1)O[C@H](c1cc(OC)c(OC)c(OC)c1)[C@@H](OC(=O)c1ccc(F)c(NC(=O)c3cc(OC)c(OC)c(OC)c3)c1)C2", 141],
  ["COc1cc(OC)c2c(c1)O[C@H](c1cc(OC)c(OC)c(OC)c1)[C@H](OC(=O)c1ccc(F)c(NC(=O)c3ccc(OC)c(OC)c3)c1)C2", 434],
  ["COc1cc(OC)c2c(c1)O[C@H](c1cc(OC)c(OC)c(OC)c1)[C@@H](OC(=O)c1ccc(F)c(NC(=O)c3ccc(OC)c(OC)c3)c1)C2", 142]
]}

IC50 for COc1cc(OC)c2c(c1)O[C@H](c1cc(OC)c(OC)c(OC)c1)[C@H](OC(=O)/C=C/c1cc(OC)c(OC)c(OC)c1)C2 ? 322

Moving on to the next compound: COc1cc(OC)c2c(c1)O[C@H](c1cc(OC)c(OC)c(OC)c1)[C@H](OC(=O)c1ccc(F)c(NC(=O)c3cc(OC)c(OC)c(OC)c3)c1)C2 418

* * *

# maps each entry to its pEC50
# Assay Text: Modulation of P-gp (unknown origin) transfected in human MDA435/LCC6MDR cells assessed as reversing vinblastine resistance measured as cell survival after 5 days by MTS assay
Scale: pEC50 equals -log10([C]), with [C] in mol/L.

{"columns": ["Smiles Representation", "pEC50"],
 "data": [
  ["COc1cc(OC)c2c(c1)O[C@H](c1cc(OC)c(OC)c(OC)c1)[C@@H](OC(=O)c1ccc(F)c(NC(=O)c3ccc(OC)c(OC)c3)c1)C2", 6.76],
  ["COc1cc(OC)c2c(c1)O[C@H](c1cc(OC)c(OC)c(OC)c1)[C@@H](OC(=O)c1ccc(F)c(NC(=O)c3cc(OC)c(OC)c(OC)c3)c1)C2", 6.97],
  ["COc1cc(OC)c2c(c1)O[C@H](c1cc(OC)c(OC)c(OC)c1)[C@H](OC(=O)c1ccc(F)c(NC(=O)c3ccc(OC)c(OC)c3)c1)C2", 6.71]
]}

Which pEC50 reading was recorded for the molecule COc1cc(OC)c2c(c1)O[C@H](c1cc(OC)c(OC)c(OC)c1)[C@H](OC(=O)/C=C/c1ccc(OC)c(OC)c1)C2 ? 6.91

* * *

# Assay Text: Modulation of P-gp (unknown origin) transfected in human MDA435/LCC6MDR cells assessed as reversing paclitaxel resistance measured as cell survival after 5 days by MTS assay
Parameter: EC50. Scope: all listed entries.
Give the number; nM is assumed, so skip it.

// worked examples, EC50 included
{"columns": ["Smiles Representation", "Unit Abbreviation", "EC50"],
 "data": [
  ["COc1cc(OC)c2c(c1)O[C@H](c1cc(OC)c(OC)c(OC)c1)[C@H](OC(=O)/C=C/c1ccc(OC)c(OC)c1)C2", "nM", 157],
  ["COc1cc(OC)c2c(c1)O[C@H](c1cc(OC)c(OC)c(OC)c1)[C@@H](OC(=O)c1ccc(F)c(NC(=O)/C=C/c3ccc(OC)c(OC)c3)c1)C2", "nM", 280],
  ["COc1cc(OC)c2c(c1)O[C@H](c1cc(OC)c(OC)c(OC)c1)[C@H](OC(=O)c1ccc(F)c(NC(=O)c3ccc(OC)c(OC)c3)c1)C2", "nM", 159],
  ["COc1cc(OC)c2c(c1)O[C@H](c1cc(OC)c(OC)c(OC)c1)[C@@H](OC(=O)c1ccc(F)c(NC(=O)c3cc(OC)c(OC)c(OC)c3)c1)C2", "nM", 140],
  ["COc1cc(OC)c2c(c1)O[C@H](c1cc(OC)c(OC)c(OC)c1)[C@H](OC(=O)c1ccc(F)c(NC(=O)c3cc(OC)c(OC)c(OC)c3)c1)C2", "nM", 214],
  ["COc1cc(OC)c2c(c1)O[C@H](c1cc(OC)c(OC)c(OC)c1)[C@@H](OC(=O)c1ccc(F)c(NC(=O)/C=C/c3cc(OC)c(OC)c(OC)c3)c1)C2", "nM", 225]
]}

Note: attention shifts to another entry.
// EC50 lookup, key: COc1cc(OC)c2c(c1)O[C@H](c1cc(OC)c(OC)c(OC)c1)[C@@H](OC(=O)c1ccc(F)c(NC(=O)c3ccc(OC)c(OC)c3)c1)C2 171
